FYI, the data here is from the RNAGym collection of RNA variant scans (doi:10.1126/science.aae0568).

B1: tRNA (parent)
chain: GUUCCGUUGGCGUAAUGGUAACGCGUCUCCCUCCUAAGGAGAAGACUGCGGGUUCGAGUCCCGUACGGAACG

# Variants of: B1
# run_description: yeast fitness relative to wild type (ratio to wild type); higher = fitter; tRNA-Arg(CCU), competitive growth, 37 C, YPD
This sample holds only a part of the variants without activity.
measure_name: yeast fitness

GUUCCCUUGGCGUAAUGGUCACGCGUCUCCCUCCUAAGGAGAAGACUGCGGGUUCGAGUCCCGUAGGGAACG 0.957
GUUCCGUUGGCGUGAUGGUAACGCGUGUCCCUCGUAUGGAGAAGACUGCGGGUUCGAGUCCCGAACGGAACG 0.667
GUUCCGUUGGCGUAAUGGUAACGCGUCUCCCUCCUAAGGAGAAGUCUGCGGGUCCGAGUCCCGUACGGAACG 0.886
GUUCUGUUGGCGUAAUGGUAACGCGUCUGCCUCCUAAGGAGAAGACUGCGGGUUCGAGUCCCGUACGGAACG 0.64
GUUCCGUUGGCGUAACGGUAACGCGUCUCCCUCCUCAGGAGAAGACUGCGGGUUCGAGUCCCGUACGGAACG 0.675
GUUCCGGUGGCGUAAUGGUAACGCGUCUCCCUCCUAAGGAAAAGACUGCGGGUUCGAGUCCCGUACGGAACG 0.776
GUUCCGUUGGCGUGAUGGUAACGCGUUUCCCUCCUAAGGAGAAGACAGCGGGUUCGAGUCCUGUACGGAACG 0.566
GUUCCGUUGGCGUAAUGGUAACGCGUCUGCCUCCUACGGAGAAGACUGCGGGUUCGAGUCCCGUACGGAACG 0.56
GUUGCGUUGGCGUAAUGGUAACGCGUUUCCCUCCUAAGGAGAAGACUGCGGGUUCGACUCCCGUACGGAACG 0.71
GUUCCGUUGGCAUAAUGGUAACGCGUCUCGCUCCUAAGGAGAAGACUGCGGGUUCGAGUCCCGUACGGAACG 0.689
GUUCCGUUGCCGUCAUGGUAACGCGUCUCCCUCCUAAGGAGAAGACUGCGGGUUCGAGUCCCGUACGGAACG 0.61
